Below, each entry is listed alongside its reported Percent Effect.
System: Wolbachia pipientis
Assay: Anti-Wolbachia Cell-Based Screen
Assay type: functional
Design: scale not given: in the data most compounds retested in dose-response had high values
Settings: 5 µM
About 13,000 (27%) of roughly 48,000 compounds showed an effect of 50% or more. Some of the results follow.
MEASURE NAME: Percent Effect (%)

- CSc1ccc(C(=O)C2CCCN(C(=O)CCCn3cncn3)C2)cc1 (stereo not given): 89.8
- O=C(CN1CCS(=O)(=O)CC1)NCc1ccccc1F: -2.021
- Cl.Cl.O=C(CN1CCN(CC(O)C2CC2)CC1)NCc1ccccc1 (stereo not given): 118.5
- CNS(=O)(=O)c1ccc(CN2CCN3CCNC(=O)C3C2)cc1 (stereo not given): -0.7065
- CC(C)CCC1=NC2(CCN(C(=O)CN3CCCC3=O)CC2)C(=O)N1: 0.2617

All values here come from ChEMBL document CHEMBL3988442.
